# PROCEDURE TEXT: Rat pharmacokinetics, i.v. bolus
# Assay type: in vivo, Sprague-Dawley rats
# CONDITION LABEL: rat, in vivo, iv, 5 mg/kg, female Sprague-Dawley rats, single 5 mg/kg slow i.v. bolus, plasma, LC-MS/MS, noncompartmental, n = 3 to 5/dose
Starred links: 1 amine or outer side, 2 acyl side, 3 side chain; linkers in the order of their positions; H or OH if unused. Positions of bridges follow the written chain, without caps; N, C: chain ends. Non-standard residues stand in square brackets, D forms with d. Residues, ends and D or L forms follow the SMILES beside them. *: point of attachment. Orn(4R-OH,5R-OCH2CH2NMe3+) = C[N+](C)(C)CCO[C@@H](N[*:3])[C@H](O)C[C@H](N[*:1])C(=O)[*:2]; pTerphenylCO(4''-OnC5H11) = CCCCCOc1ccc(-c2ccc(-c3ccc(C(=O)*)cc3)cc2)cc1; hTyr(3S-OH,4S-OH) = N[C@H](C(=O)O)[C@H](O)[C@@H](O)c1ccc(O)cc1; Pro(3S-OH,4S-Me) = C[C@H]1CN[C@H](C(=O)O)[C@H]1O; Hyp = O=C(O)[C@@H]1C[C@@H](O)CN1
OBSERVABLE: AUC(0-t) (µg·h/mL)
Answers are plain numbers, in µg·h/mL.

GET /value?item= CCCCCOc1ccc(-c2ccc(-c3ccc(C(=O)N[C@H]4C[C@@H](O)[C@@H](OCC[N+](C)(C)C)NC(=O)[C@@H]5[C@@H](O)[C@@H](C)CN5C(=O)[C@H]([C@@H](C)O)NC(=O)[C@H]([C@H](O)[C@@H](O)c5ccc(O)cc5)NC(=O)[C@@H]5C[C@@H](O)CN5C(=O)[C@H]([C@@H](C)O)NC4=O)cc3)cc2)cc1 [CD101] ({pTerphenylCO(4''-OnC5H11)}-[Orn(4R-OH,5R-OCH2CH2NMe3+)]T[Hyp][hTyr(3S-OH,4S-OH)]T[Pro(3S-OH,4S-Me)]; lactam 1-C) &field=AUC(0-t) returns 185
